Data provenance: PubChem BioAssay AID179

- Tested on: CEM cells HIV-1 protection, formazan growth assay
- Test Description: NCI AIDS Antiviral Assay
- Protocol Conditions: measured here: growth of uninfected CEM cells
pIC50: −log10 of the molar value.
Item-by-item account of pIC50
Assay Endpoint: pIC50

INSERT INTO assay_data (compound, assay_endpoint, inequality_operator, measured_value) VALUES
  ('O=C1OCCC1C(O)C1c2ccccc2-c2ccccc21 (centres undefined)', 'pIC50', '<', 3.47),
  ('CC1(C(=O)O)CCC2(C)CCC3(C)C(=CC(=O)C4C5(C)CCC(OC6OC(C(=O)O)C(O)C(O)C6OC6OC(C(=O)O)C(O)C(O)C6O)C(C)(C)C5CCC43C)C2C1 (centres undefined)', 'pIC50', '<', 3.52),
  ('Cc1ccnc2c1C(=O)C1=C(OC(C)(C)CC1O)C2=O (centres undefined)', 'pIC50', '=', 4.97),
  ('COc1cccc(/C(CC(O)(C(F)(F)F)C(F)(F)F)=N\N(C)C)c1', 'pIC50', '<', 3.70),
  ('c1ccc2c(c1)CCCN1CCc3ccccc3C21 (centres undefined)', 'pIC50', '=', 4.29),
  ('COc1ccc(C[C@H](N)C(=O)N2C[C@H](CO)C[C@H](n3ccc(=O)[nH]c3=O)C2)cc1', 'pIC50', '<', 3.21),
  ('O=C1CN(c2cccc(Cl)c2)C(=O)CN1NCNN1CC(=O)N(c2cccc(Cl)c2)CC1=O', 'pIC50', '<', 3.70),
  ('CC(=O)OCC(C)C1=C(OC(C)=O)C(=O)C2(C)C/C=C(/C)CC/C=C(\C)CCC(OC(C)=O)C(C)CCC12 (centres undefined)', 'pIC50', '=', 4.84),
  ('CC(C)/C(Cl)=N\OC(=O)NNc1ccccc1', 'pIC50', '=', 5.24);
